TARGET ENTITY: AMP-activated protein kinase, AMPK
TEST: Activation of AMPK in human HepG2 cells assessed as increase in ACC phosphorylation at Ser79 incubated for 1 hr
pEC50: −log10 of the molar value.
Please note: y applies when pEC50 is 8 or greater, and n applies otherwise.

STRUCTURE STRING	DISCRETE LABEL
N#Cc1ccc(C(=O)N2CCC(NC(=O)c3ccc(C(=O)N4CCN(Cc5ccc(F)cc5)CC4)cn3)CC2)cc1	n
N#Cc1ccc(CN2CCC(NC(=O)c3ccc(C(=O)N4CCC(C(=O)c5ccc(F)cc5F)CC4)cn3)CC2)cc1	n
COc1ccc(C(=O)C2CCN(C(=O)c3ccc(C(=O)NC4CCN(Cc5ccc(F)cc5)CC4)cn3)CC2)cc1	n
CC(C)(c1ccccc1)N1CCC(NC(=O)c2ccc(C(=O)N3CCN(Cc4ccc(F)cc4)CC3)cn2)CC1	n
N#Cc1ccc(CN2CCC(NC(=O)c3ccc(C(=O)N4CCC(C(=O)c5ccc(-n6ccnc6)cc5)CC4)nc3)CC2)cc1	n
N#Cc1ccc(CN2CCC(NC(=O)c3ccc(C(=O)N4CCN(C(=O)c5ccc(F)cc5)CC4)cn3)CC2)cc1	n
N#Cc1ccc(CN2CCC(NC(=O)c3ccc(C(=O)N4CCC(Oc5ccc(C#N)cc5)CC4)cn3)CC2)cc1	y
COc1ccc(CN2CCC(NC(=O)c3ccc(C(=O)N4CCC(C(=O)c5ccc(S(C)(=O)=O)cc5)CC4)nc3)CC2)cc1	n
COc1ccc(CN2CCC(NC(=O)c3ccc(C(=O)N4CCC(C(=O)c5ccc(N6CCCC6)cc5)CC4)nc3)CC2)cc1	n
COc1ccc(CC2CCN(C(=O)c3ccc(C(=O)NC4CCN(Cc5ccc(C#N)cc5)CC4)nc3)CC2)cc1	y
N#Cc1ccc(CN2CCC(NC(=O)c3ccc(C(=O)N4CCN(Cc5ccc(F)cc5)CC4)cn3)CC2)cc1	y

====

TEST: Oral bioavailability in rat at 5 mg/kg measured upto 10 hrs
Format: ADME, organism-based
CONDITIONS USED: in vivo

STRUCTURE STRING	bioavailability, %
COc1ccc(C(=O)C2CCN(C(=O)c3ccc(C(=O)NC4CCN(Cc5ccc(C#N)cc5)CC4)cn3)CC2)cc1	46

====

Overview of reported IC50 across a group of molecules:
TARGET ENTITY: Cytochrome P450 3A4 (Homo sapiens, UniProt P08684)
Sequence (P08684 whole entry): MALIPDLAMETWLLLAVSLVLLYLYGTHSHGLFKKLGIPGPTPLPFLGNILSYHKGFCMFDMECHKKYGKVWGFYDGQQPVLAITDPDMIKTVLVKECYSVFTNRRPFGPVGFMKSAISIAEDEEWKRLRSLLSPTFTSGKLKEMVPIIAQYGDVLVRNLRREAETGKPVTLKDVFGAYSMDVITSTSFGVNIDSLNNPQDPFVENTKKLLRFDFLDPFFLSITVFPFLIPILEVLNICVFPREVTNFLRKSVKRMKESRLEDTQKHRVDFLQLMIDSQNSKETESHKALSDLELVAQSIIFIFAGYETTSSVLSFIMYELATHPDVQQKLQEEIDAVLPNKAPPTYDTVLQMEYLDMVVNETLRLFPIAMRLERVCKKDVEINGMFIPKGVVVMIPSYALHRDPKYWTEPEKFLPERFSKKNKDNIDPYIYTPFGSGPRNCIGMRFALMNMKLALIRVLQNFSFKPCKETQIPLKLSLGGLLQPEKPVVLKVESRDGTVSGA
TEST: Inhibition of CYP3A4 (unknown origin)
Type: ADME

STRUCTURE STRING	IC50
COc1ccc(OC2CCN(C(=O)c3ccc(C(=O)NC4CCN(Cc5ccc(C#N)cc5)CC4)nc3)CC2)cc1	> 10 µM
N#Cc1ccc(CN2CCC(NC(=O)c3ccc(C(=O)N4CCC(F)(C(=O)c5ccc(F)cc5)CC4)cn3)CC2)cc1	> 10 µM
N#Cc1ccc(CN2CCC(NC(=O)c3ccc(C(=O)N4CCC(C(=O)c5ccc(F)cc5F)CC4)cn3)CC2)cc1	> 10 µM
COc1ccc(CC2CCN(C(=O)c3ccc(C(=O)NC4CCN(Cc5ccc(C#N)cc5)CC4)nc3)CC2)cc1	2 µM
COc1ccc(C(=O)C2CCN(C(=O)c3ccc(C(=O)NC4CCN(Cc5ccc(C#N)cc5)CC4)cn3)CC2)cc1	> 10 µM

====

TEST: Clearance in rat at 1 mg/kg,iv measured upto 10 hrs
Type: ADME, organism-based
CONDITIONS USED: in vivo
Overview of reported clearance across a group of molecules:

STRUCTURE STRING	clearance / mL/min/kg
N#Cc1ccc(CN2CCC(NC(=O)c3ccc(C(=O)N4CCN(Cc5ccc(F)cc5)CC4)cn3)CC2)cc1	200
COc1ccc(C(=O)C2CCN(C(=O)c3ccc(C(=O)NC4CCN(Cc5ccc(C#N)cc5)CC4)cn3)CC2)cc1	150
COc1ccc(OC2CCN(C(=O)c3ccc(C(=O)NC4CCN(Cc5ccc(C#N)cc5)CC4)nc3)CC2)cc1	71
O=C(NC1CCN(Cc2ccc(F)cc2)CC1)c1ccc(C(=O)N2CCC(C(=O)c3ccc(N4CCCC4)cc3)CC2)nc1	269

====

Overview of reported log10(IC50) across a group of compounds:
TARGET ENTITY: AMP-activated protein kinase, AMPK
TEST: Activation of AMPK in human HepG2 cells assessed as reduction in mitochondrial ATP production incubated for 1 hr
READOUT KIND: log10(IC50) (log10 of the value in nM)

COMPOUND	log10(IC50)
N#Cc1ccc(CN2CCC(NC(=O)c3ccc(C(=O)N4CCC(C(=O)c5ccc(F)cc5F)CC4)cn3)CC2)cc1	0.90
COc1ccc(C(=O)C2CCN(C(=O)c3ccc(C(=O)NC4CCN(Cc5ccc(C#N)cc5)CC4)cn3)CC2)cc1	0.45
O=C(NC1CCN(Cc2ccc(F)cc2)CC1)c1ccc(C(=O)N2CCC(C(=O)c3ccc(N4CCCC4)cc3)CC2)nc1	2.86
O=C(NC1CCN(Cc2ccc(F)cc2)CC1)c1ccc(C(=O)N2CCC(C(=O)c3ccc(-n4cccn4)cc3)CC2)nc1	2.95
COc1ccc(C(=O)C2CCN(C(=O)c3ccc(C(=O)NC4CCN(Cc5ccc(F)cc5)CC4)cn3)CC2)cc1	3.38
N#Cc1ccc(CN2CCC(NC(=O)c3ccc(C(=O)N4CCC(C(=O)c5ccc(C#N)cc5)CC4)cn3)CC2)cc1	2.90
N#Cc1ccc(CN2CCC(NC(=O)c3ccc(C(=O)N4CCC(C(O)c5ccc(F)cc5)CC4)cn3)CC2)cc1 (stereo not drawn)	2.79
N#Cc1ccc(CC2CCN(C(=O)c3ccc(C(=O)NC4CCN(Cc5ccc(C#N)cc5)CC4)nc3)CC2)cc1	1.52

====

TEST: Drug concentration in C57BL/6J mouse at 5 mg/kg,po measured after 10 days
Assay type: ADME, organism-based
CONDITIONS USED: in vivo, time 10 day, read-out: Drug uptake

STRUCTURE STRING	RESULT UNITS	concentration at 240 h
COc1ccc(C(=O)C2CCN(C(=O)c3ccc(C(=O)NC4CCN(Cc5ccc(C#N)cc5)CC4)cn3)CC2)cc1	ng/mL	440

====

TEST: Microsomal stability in human liver microsomes assessed as half life
Assay type: ADME, Microsome
READOUT KIND: half-life

STRUCTURE STRING	READOUT KIND	RECORDED VALUE
N#Cc1ccc(CC2CCN(C(=O)c3ccc(C(=O)NC4CCN(Cc5ccc(C#N)cc5)CC4)nc3)CC2)cc1	half-life	14 min
N#Cc1ccc(CN2CCC(NC(=O)c3ccc(C(=O)N4CCN(Cc5ccc(F)cc5)CC4)cn3)CC2)cc1	half-life	55 min
COc1ccc(CC2CCN(C(=O)c3ccc(C(=O)NC4CCN(Cc5ccc(C#N)cc5)CC4)nc3)CC2)cc1	half-life	46 min

====

TEST: Microsomal stability in human liver microsomes assessed as half life
Type: ADME, Microsome
Please note: true applies when half-life is 1 h or greater, and false applies otherwise.

MOLECULE	DISCRETE LABEL
N#Cc1ccc(CN2CCC(NC(=O)c3ccc(C(=O)N4CCC(C(F)c5ccc(F)cc5)CC4)cn3)CC2)cc1 (stereo not drawn)	false
COc1ccc(C(=O)C2CCN(C(=O)c3ccc(C(=O)NC4CCN(Cc5ccc(C#N)cc5)CC4)cn3)CC2)cc1	true
N#Cc1ccc(CN2CCC(NC(=O)c3ccc(C(=O)N4CCC(Oc5ccc(C#N)cc5)CC4)cn3)CC2)cc1	false
N#Cc1ccc(CN2CCC(NC(=O)c3ccc(C(=O)N4CCC(F)(C(=O)c5ccc(F)cc5)CC4)cn3)CC2)cc1	false
N#Cc1ccc(CN2CCC(NC(=O)c3ccc(C(=O)N4CCC(C(=O)c5ccc(F)cc5F)CC4)cn3)CC2)cc1	true
COc1ccc(OC2CCN(C(=O)c3ccc(C(=O)NC4CCN(Cc5ccc(C#N)cc5)CC4)nc3)CC2)cc1	true
O=C(NC1CCN(Cc2ccc(F)cc2)CC1)c1ccc(C(=O)N2CCC(C(=O)c3ccc(N4CCCC4)cc3)CC2)nc1	true
COc1ccc(C(=O)C2CCN(C(=O)c3ccc(C(=O)NC4CCN(Cc5ccc(F)cc5)CC4)cn3)CC2)cc1	true

====

TARGET ENTITY: hERG (KCNH2) (Homo sapiens, UniProt Q12809)
Sequence (Q12809 whole entry): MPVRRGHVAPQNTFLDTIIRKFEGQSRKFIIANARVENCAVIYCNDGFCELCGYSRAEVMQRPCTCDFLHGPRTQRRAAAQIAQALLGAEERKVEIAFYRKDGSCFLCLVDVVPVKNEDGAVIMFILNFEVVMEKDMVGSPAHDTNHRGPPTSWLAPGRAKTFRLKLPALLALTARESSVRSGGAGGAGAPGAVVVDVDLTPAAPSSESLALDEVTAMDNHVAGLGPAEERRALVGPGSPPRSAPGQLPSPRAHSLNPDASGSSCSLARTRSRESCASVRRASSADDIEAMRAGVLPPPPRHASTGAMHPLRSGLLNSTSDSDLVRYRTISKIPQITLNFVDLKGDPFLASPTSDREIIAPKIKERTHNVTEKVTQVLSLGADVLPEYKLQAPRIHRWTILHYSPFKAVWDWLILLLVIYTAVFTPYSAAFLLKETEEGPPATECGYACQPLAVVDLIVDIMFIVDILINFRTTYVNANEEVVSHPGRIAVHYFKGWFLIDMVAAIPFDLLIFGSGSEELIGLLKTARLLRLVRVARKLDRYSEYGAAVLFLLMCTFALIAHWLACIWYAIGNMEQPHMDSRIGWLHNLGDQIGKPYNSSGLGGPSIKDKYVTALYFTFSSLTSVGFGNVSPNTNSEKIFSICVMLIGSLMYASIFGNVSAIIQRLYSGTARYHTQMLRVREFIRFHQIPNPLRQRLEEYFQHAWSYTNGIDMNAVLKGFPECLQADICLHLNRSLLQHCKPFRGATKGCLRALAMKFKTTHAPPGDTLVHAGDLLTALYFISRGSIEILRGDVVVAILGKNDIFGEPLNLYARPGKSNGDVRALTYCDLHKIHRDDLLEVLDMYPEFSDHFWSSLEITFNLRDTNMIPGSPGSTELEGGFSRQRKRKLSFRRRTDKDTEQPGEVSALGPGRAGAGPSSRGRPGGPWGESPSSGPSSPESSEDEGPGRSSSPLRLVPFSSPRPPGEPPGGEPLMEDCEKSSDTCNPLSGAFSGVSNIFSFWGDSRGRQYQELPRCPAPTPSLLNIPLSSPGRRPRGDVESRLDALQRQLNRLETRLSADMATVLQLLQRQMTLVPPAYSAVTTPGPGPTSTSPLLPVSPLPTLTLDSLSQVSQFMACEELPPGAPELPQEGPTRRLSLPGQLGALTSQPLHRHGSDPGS
TEST: Inhibition of human ERG at 3 uM
Assay type: toxicity
Overview of reported inhibition at 3 µM across a group of compounds:

STRUCTURE STRING	RESULT UNITS	inhibition at 3 µM
N#Cc1ccc(CN2CCC(NC(=O)c3ccc(C(=O)N4CCC(Oc5ccc(C#N)cc5)CC4)cn3)CC2)cc1	%	47
COc1ccc(C(=O)C2CCN(C(=O)c3ccc(C(=O)NC4CCN(Cc5ccc(C#N)cc5)CC4)cn3)CC2)cc1	%	61
N#Cc1ccc(CN2CCC(NC(=O)c3ccc(C(=O)N4CCN(Cc5ccc(F)cc5)CC4)cn3)CC2)cc1	%	36
COc1ccc(CN2CCC(NC(=O)c3ccc(C(=O)N4CCC(C(=O)c5ccc(OC)cc5)CC4)nc3)CC2)cc1	%	70
COc1ccc(OC2CCN(C(=O)c3ccc(C(=O)NC4CCN(Cc5ccc(C#N)cc5)CC4)nc3)CC2)cc1	%	46
N#Cc1ccc(CN2CCC(NC(=O)c3ccc(C(=O)N4CCC(C(=O)c5ccc(F)cc5F)CC4)nc3)CC2)cc1	%	64
N#Cc1ccc(CN2CCC(NC(=O)c3ccc(C(=O)N4CCC(C(=O)c5ccc(C#N)cc5)CC4)cn3)CC2)cc1	%	54
CS(=O)(=O)c1ccc(C(=O)C2CCN(C(=O)c3ccc(C(=O)NC4CCN(Cc5ccc(F)cc5)CC4)cn3)CC2)cc1	%	83
COc1ccc(C(=O)C2CCN(C(=O)c3ccc(C(=O)NC4CCN(Cc5ccc(F)cc5)CC4)cn3)CC2)cc1	%	64
N#Cc1ccc(CN2CCC(NC(=O)c3ccc(C(=O)N4CCC(Oc5ccc(F)cc5F)CC4)nc3)CC2)cc1	%	36
N#Cc1ccc(CN2CCC(NC(=O)c3ccc(C(=O)N4CCC(C(=O)c5ccc(F)cc5F)CC4)cn3)CC2)cc1	%	34
